Listed here: items and their measured AUC(0-t).
# test.method.notes: In vivo bioavailability / pharmacokinetic study IV and PO
# Design: species or system male Sprague-Dawley rats
# protocol.conditions: male, Sprague-Dawley, whole blood; rat; PO 5 mg/kg
readout: AUC(0-t) (µg·h/mL)

* CCOc1ccccc1NC1=C(Cl)C(=O)c2nc(C)ccc2C1=O | 2.3
* COc1ccccc1NC1=C(Cl)C(=O)c2nc(C)ccc2C1=O | 3.81

---

Listed here: items and their measured CC50.
# System: A549/ATCC
# test.method.notes: NCI-60 five-dose assay (non-small cell lung cancer)
# Assay type: cell-based, human
# protocol.conditions: Homo sapiens, 48 h, SRB, read-out: LC50 (the source's name)
readout: CC50 (µM)

* COc1ccccc1NC1=C(Cl)C(=O)c2nc(C)ccc2C1=O | 45.2
* CCOc1ccccc1NC1=C(Cl)C(=O)c2nc(C)ccc2C1=O | 12.9
* COc1cc(NC2=C(Cl)C(=O)c3nc(C)ccc3C2=O)cc(OC)c1 | 38.8
* CCOc1ccc(NC2=C(Cl)C(=O)c3nc(C)ccc3C2=O)cc1 | 17.5
